Reported inhibition at 3 min, 20 µM is given for each of the following molecules.
molecular target: UniProtKB O15244; assay: Inhibition of OCT2-mediated [3H]MPP+ uptake in HEK-OCT2 cells; details: human, pH 7.3
Expressed in %, but write only the number.

>>> print(df.to_string())
                                   molecule  observed_measurement
0  CCCCC(=O)N(Cc1ccc(-c2ccccc2-c2nnn[nH]2)cc1)[C@H](C(=O)O)C(C)C                 -77.2

For reference, reported inhibition at 3 min, 20 µM for O=[N+]([O-])O[C@H]1CO[C@H]2[C@@H]1OC[C@H]2O[N+](=O)[O-] [Isosorbide dinitrate] stands at -20.4

---

target: OCT2 (Homo sapiens); experiment: Inhibition of OCT2-mediated [3H]MPP+ uptake in HEK-OCT2 cells; conditions: test drug 20 µM; MPP+ 50 μM; 3 min; net uptake HEK-OCT2 minus HEK-VC
Property measured: % Inhibition of OCT2-dependent MPP+ uptake at 20 µM (mean ± SEM) (%)
Supply the numeric figure in %, leaving out any unit text.

Reference set, count: 6
                                   molecule  observed_measurement
0  CN1C(=O)CN=C(c2ccccc2F)c2cc([N+](=O)[O-])ccc21                   5.1
1  COc1ccc(Cl)cc1C(=O)NCCc1ccc(S(=O)(=O)NC(=O)NC2CCCCC2)cc1 [Glibenclamide]                 -27.7
2       CCN(C)C(=O)Oc1cccc([C@H](C)N(C)C)c1                  25.1
3  CCOC(=O)[C@H](CCc1ccccc1)N[C@@H](C)C(=O)N1[C@H](C(=O)O)C[C@@H]2CCC[C@@H]21                  72.5
4  Cc1cccc(Nc2ccncc2S(=O)(=O)NC(=O)NC(C)C)c1 [Torasemide]                 -11.4
5  COc1ccc(C(CN(C)C)C2(O)CCCCC2)cc1 (stereo not shown)                 -43.3

Param item: `CCOc1ccccc1OCCN[C@H](C)Cc1ccc(OC)c(S(N)(=O)=O)c1` ; param system: OCT2 (Homo sapiens); output % Inhibition of OCT2-dependent MPP+ uptake at 20 µM (mean ± SEM): 14.9

---

biological target: OCT2 (Homo sapiens); experiment: Inhibition of OCT2-mediated [3H]MPP+ uptake in HEK-OCT2 cells; settings: test drug 20 µM; MPP+ 50 μM; 3 min; net uptake HEK-OCT2 minus HEK-VC
Property measured: % Inhibition of OCT2-dependent MPP+ uptake at 20 µM (mean ± SEM) (%)
Number in %, nothing else.

See these solved cases before continuing.
>>> df
                                   molecule  observed_measurement
0  CCC(=O)C(CC(C)N(C)C)(c1ccccc1)c1ccccc1 (stereo not drawn) [Methadone]                   8.9
1  Cc1nc2n(c(=O)c1CCN1CCC(c3noc4cc(F)ccc34)CC1)CCCC2 [Risperidone]                  57.8
2  C[C@]12CC[C@@H]3c4ccc(O)cc4CC[C@H]3[C@@H]1CC[C@@H]2O [Estradiol]                  10.6
3  CCC1=C(C)CN(C(=O)NCCc2ccc(S(=O)(=O)NC(=O)N[C@H]3CC[C@H](C)CC3)cc2)C1=O [Glimepiride]                  31.1
4  Nc1nc(N)c2nc(-c3ccccc3)c(N)nc2n1 [Triamterene]                   6.6
5  CC(=O)N[C@@H](CS)C(=O)O [Acetylcysteine]                 -35.6

Documented % Inhibition of OCT2-dependent MPP+ uptake at 20 µM (mean ± SEM) of CNCCC(Oc1ccc(C(F)(F)F)cc1)c1ccccc1 (stereo not drawn) [Fluoxetine] : 20.2

Lab note: C#C[C@]1(O)CC[C@H]2[C@@H]3CCc4cc(O)ccc4[C@H]3CC[C@@]21C [Ethinylestradiol] gave % Inhibition of OCT2-dependent MPP+ uptake at 20 µM (mean ± SEM) of 14.0

// sample Cc1c(N(C)CS(=O)(=O)O)c(=O)n(-c2ccccc2)n1C [Metamizole] , its % Inhibition of OCT2-dependent MPP+ uptake at 20 µM (mean ± SEM) was -31.6

The molecule OC(CNCC(O)C1CCc2cc(F)ccc2O1)C1CCc2cc(F)ccc2O1 (stereo not drawn) [Nebivolol] showed % Inhibition of OCT2-dependent MPP+ uptake at 20 µM (mean ± SEM) equal to -13.7

For record C=C1CC[C@H](O)C/C1=C/C=C1\CCC[C@]2(C)[C@@H]([C@H](C)CCCC(C)C)CC[C@@H]12 [Cholecalciferol] the listed % Inhibition of OCT2-dependent MPP+ uptake at 20 µM (mean ± SEM) is 6.8

Reported % Inhibition of OCT2-dependent MPP+ uptake at 20 µM (mean ± SEM) of CCOC(=O)C1=C(C)NC(C)=C(C(=O)OC)C1c1cccc(Cl)c1Cl (stereo not drawn) [Felodipine] : -8.8

Please fill in: % Inhibition of OCT2-dependent MPP+ uptake at 20 µM (mean ± SEM) reported for Fc1ccc([C@@H]2CCNC[C@H]2COc2ccc3c(c2)OCO3)cc1 [Paroxetine] = 15.5

---

biological target: OCT2 (Homo sapiens); test: Inhibition of OCT2-mediated [3H]MPP+ uptake in HEK-OCT2 cells; conditions: human, pH 7.3
Recorded % Inhibition of OCT2-dependent MPP+ uptake at 200 µM (mean ± SEM) determines the group label, using bin 1 (below 30), bin 2 (30 to below 90), bin 3 (90 or more)

                                   molecule               system  discrete_label
0  O=C1Nc2ccc(Cl)cc2C(c2ccccc2)=NC1O (stereo not drawn)  OCT2 (Homo sapiens)           bin 2
1  COc1ccnc(C[S+]([O-])c2nc3ccc(OC(F)F)cc3[nH]2)c1OC (stereo not drawn)  OCT2 (Homo sapiens)           bin 3
2         CNCC[C@H](Oc1cccc2ccccc12)c1cccs1  OCT2 (Homo sapiens)           bin 2
3  COc1cccc(C2(O)CCCCC2CN(C)C)c1 (stereo not drawn)  OCT2 (Homo sapiens)           bin 2
4                       NCC1(CC(=O)O)CCCCC1  OCT2 (Homo sapiens)           bin 1

Sort CN1C(=O)C(O)N=C(c2ccccc2Cl)c2cc(Cl)ccc21 (stereo not drawn) into one of the categories.
bin 2

Which band does COC(=O)C(c1ccccc1)C1CCCCN1 (stereo not drawn) [Methylphenidate] fall in?
bin 2

---

target: OCT2 (Homo sapiens, UniProt O15244); experiment: in vitro; details: human, pH 7.3
Sequence (O15244 whole entry): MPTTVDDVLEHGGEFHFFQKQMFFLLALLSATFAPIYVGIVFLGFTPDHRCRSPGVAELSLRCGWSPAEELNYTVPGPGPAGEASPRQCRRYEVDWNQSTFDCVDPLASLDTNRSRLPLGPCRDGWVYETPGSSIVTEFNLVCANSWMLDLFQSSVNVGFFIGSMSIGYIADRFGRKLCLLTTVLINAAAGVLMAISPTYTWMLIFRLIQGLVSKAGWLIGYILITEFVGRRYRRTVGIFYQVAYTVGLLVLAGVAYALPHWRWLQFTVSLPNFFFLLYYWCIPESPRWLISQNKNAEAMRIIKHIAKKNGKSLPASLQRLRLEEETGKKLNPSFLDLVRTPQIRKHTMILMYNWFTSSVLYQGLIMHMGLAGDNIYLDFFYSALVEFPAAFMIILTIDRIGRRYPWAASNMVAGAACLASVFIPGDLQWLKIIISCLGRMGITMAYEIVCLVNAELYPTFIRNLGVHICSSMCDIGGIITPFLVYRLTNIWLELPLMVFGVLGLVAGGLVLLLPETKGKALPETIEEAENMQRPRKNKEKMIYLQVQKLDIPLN
Listed next: entries and their corresponding % Inhibition of OCT2-dependent MF uptake at 20 µM (mean ± SEM).
Lab note: write the figure by itself, no unit.

Previously resolved entries follow.
In [3]: df
Out[3]:
                                   compound  observed_measurement
0  COCCc1ccc(OCC(O)CNC(C)C)cc1 (stereo not drawn)                  50.5
1  CC(C)n1c(/C=C/C(O)CC(O)CC(=O)O)c(-c2ccc(F)cc2)c2ccccc21 (stereo not drawn)                 -21.1
2  C[C@H]1c2cccc(O)c2C(=O)C2=C(O)[C@]3(O)C(=O)C(C(N)=O)=C(O)[C@@H](N(C)C)[C@@H]3[C@@H](O)[C@@H]21                 -21.8
3  NS(=O)(=O)c1cc2c(cc1Cl)NCNS2(=O)=O [Hydrochlorothiazide]                 -34.7
4  O=C(NCCN1CCOCC1)c1ccc(Cl)cc1 [Moclobemide]                   4.3

Per the record, `NC(=O)C1(N2CCCCC2)CCN(CCCC(=O)c2ccc(F)cc2)CC1` has % Inhibition of OCT2-dependent MF uptake at 20 µM (mean ± SEM) of 33.9

The compound CCN(CC)CCNC(=O)c1cc(Cl)c(N)cc1OC [Metoclopramide] showed % Inhibition of OCT2-dependent MF uptake at 20 µM (mean ± SEM) equal to 74.7

GET /value?item= `O=C(CCCN1CCC(O)(c2ccc(Cl)cc2)CC1)c1ccc(F)cc1` &field=% Inhibition of OCT2-dependent MF uptake at 20 µM (mean ± SEM) returns 6.4

The measured % Inhibition of OCT2-dependent MF uptake at 20 µM (mean ± SEM) associated with CN(Cc1cnc2nc(N)nc(N)c2n1)c1ccc(C(=O)N[C@@H](CCC(=O)O)C(=O)O)cc1 [Methotrexate] reads -1.1

Looking up `Nc1ccc(O)c(C(=O)O)c1` , I found its % Inhibition of OCT2-dependent MF uptake at 20 µM (mean ± SEM) recorded as 21.6

The value of % Inhibition of OCT2-dependent MF uptake at 20 µM (mean ± SEM) measured for the compound `O=C(O)Cc1ccccc1Nc1c(Cl)cccc1Cl` turned out to be 14.3

Entry under test: `CCC(C)(C)C(=O)O[C@H]1C[C@@H](C)C=C2C=C[C@H](C)[C@H](CC[C@@H]3C[C@@H](O)CC(=O)O3)[C@H]21` . Its % Inhibition of OCT2-dependent MF uptake at 20 µM (mean ± SEM) was -15.4

# % Inhibition of OCT2-dependent MF uptake at 20 µM (mean ± SEM) (compound: `CCN(C)C(=O)Oc1cccc([C@H](C)N(C)C)c1` ) is 51.8

Reported % Inhibition of OCT2-dependent MF uptake at 20 µM (mean ± SEM) of `CC[C@H](C)C(=O)O[C@H]1C[C@H](O)C=C2C=C[C@H](C)[C@H](CC[C@@H](O)C[C@@H](O)CC(=O)O)[C@H]21` : -26.3

Lab note: CNCCC(Oc1ccc(C(F)(F)F)cc1)c1ccccc1 (stereo not drawn) gave % Inhibition of OCT2-dependent MF uptake at 20 µM (mean ± SEM) of 79.0

Item: `Nc1nc(N)c2nc(-c3ccccc3)c(N)nc2n1` | % Inhibition of OCT2-dependent MF uptake at 20 µM (mean ± SEM): 48.0
